biological target: Human AChE (Homo sapiens, UniProt P22303); construct: purchased Sigma; experiment: biochemical; conditions: IC50 AChE
Sequence (P22303 32-614): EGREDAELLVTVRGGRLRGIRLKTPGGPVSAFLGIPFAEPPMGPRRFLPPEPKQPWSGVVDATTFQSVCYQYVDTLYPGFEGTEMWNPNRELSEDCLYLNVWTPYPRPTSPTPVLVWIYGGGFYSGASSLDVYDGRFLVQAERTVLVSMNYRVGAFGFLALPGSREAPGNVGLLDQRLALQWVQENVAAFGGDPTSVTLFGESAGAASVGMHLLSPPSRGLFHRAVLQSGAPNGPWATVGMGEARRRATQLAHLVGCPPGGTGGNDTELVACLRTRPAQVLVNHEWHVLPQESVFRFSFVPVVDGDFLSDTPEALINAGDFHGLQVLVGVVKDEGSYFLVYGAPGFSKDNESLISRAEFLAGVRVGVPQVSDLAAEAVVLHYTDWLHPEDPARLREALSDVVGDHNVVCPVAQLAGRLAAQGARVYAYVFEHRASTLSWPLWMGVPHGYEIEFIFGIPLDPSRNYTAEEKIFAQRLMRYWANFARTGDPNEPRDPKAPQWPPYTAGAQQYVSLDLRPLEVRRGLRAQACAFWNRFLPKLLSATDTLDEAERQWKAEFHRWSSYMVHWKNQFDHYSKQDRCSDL
pIC50: −log10 of the molar value.
Assign pIC50 to each entry below.

See these solved cases before continuing.
SMILES_STRUCTURE: CN1c2ccc(OC(=O)Nc3ccncc3F)cc2[C@]2(C)CCO[C@H]12
pIC50: < 5.30
--
SMILES_STRUCTURE: CN1c2ccc(OC(=O)Nc3ccc(C(F)(F)F)cc3)cc2[C@]2(C)CCO[C@H]12
pIC50: < 5.30

Pending molecule:
Qu. If you can, please state the reported pIC50 value of CN1c2ccc(OC(=O)Nc3ccc(OC(F)(F)F)cc3)cc2[C@]2(C)CCO[C@H]12 .
Ans. < 5.30
